tested on: L6-myotubes; assay: Glucose uptake in differentiated L6-myotubes (Biological Example 2); type: cell-based; details: glucose uptake in differentiated L6-myotubes; compound at 10 μM, activity relative to isoproterenol at 10 μM; read-out: Biological example 2 (GU)
As shown below, each of these compounds has a reported Emax at 10 µM value.

>  <compound>
O[C@H](c1cccc(F)c1)C12CCC(COCc3ccc(F)cc3)(CC1)N2 [Compound 439]

>  <target>
L6-myotubes

>  <parameter measured>
Emax at 10 µM

>  <reported>
> 75%

$$$$
>  <compound>
CC(C)(NC[C@H](O)c1cncc(F)c1)[C@H]1CC[C@H](O)CC1 [Compound 285]

>  <target>
L6-myotubes

>  <parameter measured>
Emax at 10 µM

>  <reported>
50 to 75%

$$$$
>  <compound>
CC1(C)C[C@H]([C@H](O)c2ccccc2F)N1 [Compound 204]

>  <target>
L6-myotubes

>  <parameter measured>
Emax at 10 µM

>  <reported>
> 75%

$$$$
>  <compound>
CC1(C)CC[C@H]([C@@H](O)c2cccc(N)c2F)N1 [Compound 226]

>  <target>
L6-myotubes

>  <parameter measured>
Emax at 10 µM

>  <reported>
25 to 50%

$$$$
>  <compound>
CCS(=O)(=O)N[C@H]1CC[C@@H](CC(C)(C)NC[C@H](O)c2cncc(F)c2)CC1 [Compound 524]

>  <target>
L6-myotubes

>  <parameter measured>
Emax at 10 µM

>  <reported>
50 to 75%

$$$$

Query CC(C)(C[C@H]1CC[C@@H](C(=O)O)CC1)NC[C@H](O)c1cncc(F)c1 [Compound 324] yields Emax at 10 µM of 25 to 50%

Emax at 10 µM measured on Cc1ncccc1[C@@H](O)CNC(C)(C)C[C@H]1CC[C@@H](NS(C)(=O)=O)CC1 [Compound 437] = 25 to 50%

Noted for CC(C)(NC[C@H](O)c1cncc(F)c1)[C@H]1CC[C@@H](C(=O)O)CC1 [Compound 323] : its Emax at 10 µM reads 25 to 50%

###

test system: L6-myotubes; assay: Glucose uptake in differentiated L6-myotubes (Biological Example 2); format: cell-based; details: glucose uptake in differentiated L6-myotubes; compound at 10 μM, activity relative to isoproterenol at 10 μM; read-out: Biological example 2 (GU)
Item-by-item account of Emax at 10 µM

// known answers, use as guide
>  <smiles data>
CC(=O)N[C@H]1CC[C@@H](CC(C)(C)NC[C@H](O)c2cccc(C#N)n2)CC1

>  <Emax at 10 µM>
> 75%

$$$$
>  <smiles data>
CO[C@H]1CC[C@H](CCC(C)(C)NC[C@H](O)c2cncc(F)c2)CC1

>  <Emax at 10 µM>
25 to 50%

$$$$
>  <smiles data>
CO[C@H]1CC[C@H](CCCNC[C@H](O)c2cncc(F)c2)CC1

>  <Emax at 10 µM>
< 25%

$$$$
>  <smiles data>
CO[C@H]1CCC[C@@H](C(C)(C)NC[C@H](O)c2cncc(F)c2)C1

>  <Emax at 10 µM>
> 75%

$$$$
>  <smiles data>
CC(C)(C)NC[C@H](O)c1cccc(C#N)n1

>  <Emax at 10 µM>
> 75%

$$$$
>  <smiles data>
CO[C@H]1CC[C@H](C[C@]2(C)CC[C@H]([C@H](O)c3cccc(F)c3)N2)CC1

>  <Emax at 10 µM>
> 75%

$$$$
>  <smiles data>
CNS(=O)(=O)[C@H]1CC[C@@H](CC(C)(C)NC[C@H](O)c2cccc(F)c2)CC1

>  <Emax at 10 µM>
50 to 75%

$$$$
>  <smiles data>
CC(C)(C[C@H]1CC[C@@H](O)CC1)NC[C@H](O)c1cncc(F)c1

>  <Emax at 10 µM>
> 75%

$$$$
>  <smiles data>
O[C@H](c1cncc(F)c1)C12CCC(COCc3ccc(OC(F)(F)F)cc3)(CC1)N2

>  <Emax at 10 µM>
50 to 75%

$$$$
>  <smiles data>
CC12CC(C1)[C@@H]([C@@H](O)c1ccccc1F)N2

>  <Emax at 10 µM>
> 75%

$$$$

For the next question, use this compound.
Measured Emax at 10 µM of `COC(=O)[C@H]1CC[C@H](C(C)(C)NC[C@H](O)c2cncc(F)c2)CC1` : > 75%

###

# Emax at 10 µM values compiled below
tested on: L6-myotubes; test: Glucose uptake in differentiated L6-myotubes (Biological Example 2); type: cell-based; conditions: glucose uptake in differentiated L6-myotubes; compound at 10 μM, activity relative to isoproterenol at 10 μM; read-out: Biological example 2 (GU)

Below are worked cases with known answers.
>  <compound>
COCC12CCC([C@@H](O)c3cccc(F)c3)(CC1)N2 [Compound 329]

>  <parameter measured>
Emax at 10 µM

>  <reported>
25 to 50%

$$$$
>  <compound>
CC12CC(C1)[C@H]([C@@H](O)c1ccccc1F)N2 [Compound 212]

>  <parameter measured>
Emax at 10 µM

>  <reported>
> 75%

$$$$
>  <compound>
CO[C@H]1CC[C@H](C[C@H]2CC[C@H]([C@H](O)c3cncc(F)c3)N2)CC1 [Compound 341]

>  <parameter measured>
Emax at 10 µM

>  <reported>
> 75%

$$$$
>  <compound>
CC(=O)N[C@H]1CC[C@H](CC(C)(C)NC[C@@H](O)c2cccc(C#N)n2)CC1 [Compound 427]

>  <parameter measured>
Emax at 10 µM

>  <reported>
< 25%

$$$$
>  <compound>
CC(C)(CC[C@H]1CC[C@@H](O)CC1)NC[C@H](O)c1ccccc1F [Compound 320]

>  <parameter measured>
Emax at 10 µM

>  <reported>
> 75%

$$$$

Please look at the following compound next.
The compound identified as CNS(=O)(=O)[C@H]1CC[C@H](CC(C)(C)NC[C@H](O)c2cncc(F)c2)CC1 [Compound 478] registered its Emax at 10 µM at 25 to 50%

###

tested on: L6-myotubes; assay: Glucose uptake in differentiated L6-myotubes (Biological Example 2); type: cell-based; conditions: glucose uptake; compound at 10 μM relative to isoproterenol at 10 μM; read-out: Biological example 2 (GU)
parameter measured: Emax at 10 µM

>  <smiles data>
CCC[C@@H]1CC[C@H]([C@@H](O)c2cccc(F)c2)N1

>  <Emax at 10 µM>
25 to 50%

$$$$
>  <smiles data>
CC1(C)CC[C@H]([C@@H](O)c2ccccc2Cl)N1

>  <Emax at 10 µM>
< 25%

$$$$

Entry `CC(C)(C)NC[C@H](O)c1cccc(O)c1F` — recorded Emax at 10 µM = 50 to 75%

// Emax at 10 µM lookup, compound = `CC1(C)CC[C@H]([C@H](O)c2cccc(O)c2)N1` , result: > 75%

The compound listed as `CCC[C@H]1CC[C@H]([C@H](O)c2cccc(O)c2)N1` has a reported Emax at 10 µM of 50 to 75%

###

Tested on: L6-myotubes
Test: Glucose uptake in differentiated L6-myotubes (Biological Example 2)
Format: cell-based
Settings: glucose uptake in differentiated L6-myotubes; compound at 10 μM, activity relative to isoproterenol at 10 μM; read-out: Biological example 2 (GU)
Text: Compounds described in publications referenced and incorporated herein were screened in accordance with the procedures outlined in Biological example 2 and Biological example 3. […]
parameter measured: Emax at 10 µM

Some solved entries appear below for comparison.
>  <smiles data>
CC1(C)C[C@@H]([C@@H](O)c2cccc(Cl)c2)N1

>  <Emax at 10 µM>
25 to 50%

$$$$
>  <smiles data>
CO[C@H]1CC[C@H](CC(C)(C)NC[C@H](O)c2cccc(F)c2)CC1

>  <Emax at 10 µM>
> 75%

$$$$
>  <smiles data>
COc1ccc(C[C@H]2CC[C@H]([C@H](O)c3cccc(F)c3)N2)cc1

>  <Emax at 10 µM>
> 75%

$$$$
>  <smiles data>
CS(=O)(=O)N(Cc1ccccc1)[C@H]1CC[C@@H](C[C@@H]2CC[C@H]([C@@H](O)c3cccc(F)c3)N2)CC1

>  <Emax at 10 µM>
< 25%

$$$$

response.value for `O[C@@H](c1cccc(F)c1)C12CCC(CCc3ccc(OC(F)(F)F)cc3)(CC1)N2` (field: Emax at 10 µM) = < 25%

Just so you know, measured Emax at 10 µM for `CC(=O)N[C@H]1CC[C@H](CC(C)(C)NC[C@H](O)c2cncc(F)c2)CC1` came out at > 75%

Sure, the documented Emax at 10 µM for `CC(C)(C[C@H]1CC[C@@H](NS(C)(=O)=O)CC1)NC[C@H](O)c1cccc(F)c1` is > 75%

Emax at 10 µM reported for this molecule `CO[C@@H]1CCC[C@H](C(C)(C)NC[C@H](O)c2cccc(F)c2)C1` : > 75%
